# test-description: Pharmacokinetic study of RPDQ in rats after intragastric and intravenous administration (UPLC-MS/MS of plasma)
# Type: in vivo, Wistar rats
# condition-label: both sexes, Wistar, rat, plasma, iv; rats, 0.3 mg/kg i.v.; read-out: CLz (converted)
measure: clearance (mL/min/kg)
Respond with the bare value in mL/min/kg.

Let me know recorded clearance for `CC(C)(O)[C@@H]1CC[C@@](C)([C@H]2CC[C@]3(C)[C@@H]2[C@H](O[C@@H]2O[C@H](CO)[C@@H](O)[C@H]2O)C[C@@H]2[C@@]4(C)CC[C@H](O)C(C)(C)[C@@H]4CC[C@]23C)O1` , thanks.
0.667
